The origin of these recorded values is paper PMC3641071.

# protocol.text: Pharmacokinetic study: sum total doxorubicin in plasma, brain tumor and brain by HPLC-FL
# Type: in vivo
# conditions.used: female, athymic nude (nu/nu), mouse; plasma; 6 mg/kg IV x1; noncompartmental; read-out: AUC0-∞ of sum total doxorubicin
# Method: Group 1 (n = 23) received NonL-doxo administered over 10–15 seconds at 6 mg/kg IV ×1 via tail vein. […] Total tissue and tumor weight was recorded at time of collection. […] Samples were further processed for the analytical studies using protein precipitation with acetonitrile. […] The samples were then vortexed, transferred into auto-sampler vials and analyzed by high-performance liquid chromatography (HPLC) using fluorescence (FL) detection (excitation wavelength: 490 nm/ emission wavelength: 590 nm). […]
result.type: AUC(0-inf) (ng·h/mL)
Please reply with the bare figure in ng·h/mL and do not write the unit itself.

Prompt: Value lookup for AUC(0-inf); key = `COc1cccc2c1C(=O)c1c(O)c3c(c(O)c1C2=O)C[C@@](O)(C(=O)CO)C[C@@H]3O[C@H]1C[C@H](N)[C@H](O)[C@H](C)O1`
Response: 1540
